System: SK-OV-3 ovarian
test-summary: NCI-60 one-dose screen, 48 h
assay-conditions: 10 µM unless noted
About 83,000 compounds went through this panel and 20% of them were active in at least one assay; those are over-represented in the sample as a whole. Calls of active or inactive are those of the source. The calls were made as follows: active = growth percent below 10; inactive = the rest.
Possible outcomes: true for active, false for inactive

{"columns": ["compound", "test-target", "assigned-class"],
 "data": [
  ["O=C1C=C(Nc2ccccc2)c2ncccc2C1=O", "SK-OV-3 ovarian", "true"],
  ["C#CCn1cnc2cnc(Nc3cccc(NC(=O)CCl)c3)nc21", "SK-OV-3 ovarian", "false"],
  ["Cc1cnc(C(=O)NNc2nc3sc4c(c3c(=O)[nH]2)C(C)CCC4)cn1 (stereo unspecified)", "SK-OV-3 ovarian", "false"],
  ["CC[C@]1(O)CC2CN(CCc3c([nH]c4ccccc34)C(C(=O)OC)(c3cc4c(cc3OC)N(C=O)[C@H]3[C@@](O)(C(=O)OC)[C@H](OC(C)=O)[C@]5(CC)[C@@H]6C[C@@H]6CN6CC[C@]43[C@@H]65)C2)C1 (stereo partly specified)", "SK-OV-3 ovarian", "true"],
  ["CCCCCCCCCCCCCCCCCCn1cc(COc2ccc(C=O)cc2)nn1", "SK-OV-3 ovarian", "false"],
  ["C[C@]12CCc3c(ccc4cc(O)ccc34)[C@@H]1C[C@H](O)[C@@H]2O", "SK-OV-3 ovarian", "false"]
]}

----------
Tested on: MOLT-4 leukemia
test-summary: NCI-60 one-dose screen, 48 h
assay-conditions: 10 µM unless noted
This is part of a sample that, as a whole, favours compounds with a hit. Of some 83,000 tested, about 20% had one in any assay. The source made the active and inactive calls. The calls were made as follows: active = growth percent below 10; inactive = the rest.
Labels: Y (active), N (inactive)

{"columns": ["mol-smiles", "assigned-class"],
 "data": [
  ["COc1ccc(CN2CCc3c(Cl)nc(N)nc3C2=O)c(OC)c1", "N"],
  ["C[C@@H]1O[C@@H](O[C@H]2[C@@H](OC(=O)[C@]34CCC(C)(C)C[C@H]3C3=CC[C@@H]5[C@@]6(C)C[C@H](O)[C@H](O[C@@H]7O[C@H](CO)[C@@H](O)[C@H](O)[C@H]7O)[C@@](C)(CO)[C@@H]6CC[C@@]5(C)[C@]3(C)C[C@H]4O)OC[C@@H](O)[C@@H]2O)[C@H](O)[C@H](O[C@@H]2OC[C@@H](O)[C@H](O[C@@H]3OC[C@](O)(CO)[C@H]3O[C@@H]3OC[C@@H](O)[C@H](O)[C@H]3O)[C@H]2O)[C@H]1O[C@@H]1OC[C@](O)(CO)[C@H]1O", "N"],
  ["COc1ccc(Nc2ncnc3ccc(-c4cncc(NS(C)(=O)=O)c4)cc23)cc1Cl", "Y"]
]}

----------
Each entry below lists one item and its recorded growth value.
System: BT-549 breast
test-summary: NCI-60 one-dose screen, 48 h (100 = growth as untreated, 0 = no growth, -100 = all killed)
assay-conditions: 10 µM unless noted
Protocol: Growth inhibition of the BT-549 human tumor cell line is measured as a screen for anti-cancer activity. Cells are grown in 96 well plates and exposed to the test compound for 48 hours. Compounds are tested at a single concentration, which is 10^-5 M for most compounds. The reported endpoint is percent growth (GI% or GIPRCNT), where numbers from 0 - 100% represent growth inhibition, and numbers from -100% - 0 represent cell death. For example, a value of 40 represents 60% growth inhibition. […]
The panel holds about 83,000 compounds, 20% with a hit somewhere; the sample as a whole holds those more often. The source made the active and inactive calls. The calls were made as follows: active = growth percent below 10; inactive = the rest.
endpoint: growth

{"columns": ["compound", "result"],
 "data": [
  ["Cn1c(=O)c2c(nc(Nc3cc(=O)[nH]c(=O)[nH]3)n2Cc2ccccc2)n(C)c1=O", "98.2% (inactive)"],
  ["COC(=O)c1[nH]nc(OC)c1C1(C(C#N)c2nc3ccccc3s2)CCCc2ccccc21 (stereo unspecified)", "88.2% (inactive)"],
  ["CCCCCCCCCCCCC[C@H](O)C[C@H](O)[C@H](C)N", "107% [1.25 µM] (inactive)"],
  ["Fc1ccccc1-c1cnn2cc(-c3ccccc3)cnc12", "98.7% (inactive)"],
  ["COC(=O)/C=C1/SC(N2N=C(c3cccs3)CC2c2ccc(F)cc2)=NC1=O (stereo unspecified)", "66.1% (inactive)"],
  ["O=C(/C=C/c1ccc(F)cc1)Nc1ncc(Cc2ccc(F)cc2)s1", "67.3% (inactive)"]
]}

----------
Test system: UO-31 renal
test-summary: NCI-60 one-dose screen, 48 h (100 = growth as untreated, 0 = no growth, -100 = all killed)
assay-conditions: 10 µM unless noted
The panel holds about 83,000 compounds, 20% with a hit somewhere; the sample as a whole holds those more often.
Reported values of growth for individual entries
endpoint: growth (%)

{"columns": ["molecule", "unit", "result-number"],
 "data": [
  ["COc1cc(/C=C/C(=O)c2ccc(NC(=O)CSc3nnc(-c4cc(-c5ccccc5)nc5ccccc45)n3-c3ccccc3)cc2)cc(OC)c1OC", "%", 87.7],
  ["CCCCCCCCCCCCCCCCCCn1cc(COc2ccc(C=O)cc2)nn1", "%", 93],
  ["Cc1n(Cc2ccc3ccccc3c2)c(Cl)c(Cl)[n+]1Cc1ccc2ccccc2c1", "%", 72.1],
  ["C[C@@H]1O[C@@H](O[C@H]2[C@@H](OC(=O)[C@]34CCC(C)(C)C[C@H]3C3=CC[C@@H]5[C@@]6(C)C[C@H](O)[C@H](O[C@@H]7O[C@H](CO)[C@@H](O)[C@H](O)[C@H]7O)[C@@](C)(CO)[C@@H]6CC[C@@]5(C)[C@]3(C)C[C@H]4O)OC[C@@H](O)[C@@H]2O)[C@H](O)[C@H](O[C@@H]2OC[C@@H](O)[C@H](O[C@@H]3OC[C@](O)(CO)[C@H]3O[C@@H]3OC[C@@H](O)[C@H](O)[C@H]3O)[C@H]2O)[C@H]1O[C@@H]1OC[C@](O)(CO)[C@H]1O", "%", 28.6],
  ["O=C1CCCCN1CCCCC#Cc1cccc(C#Cc2cccnc2)c1", "%", 59.1],
  ["C/C(=C(\\c1ccc(OCCN2CCOCC2)cc1)c1ccc(OC(=O)C2CCCCC2)cc1)c1ccc(Cl)cc1", "%", 81.8],
  ["O=C(CN1C(=O)S/C(=C\\C(Cl)=C\\c2ccccc2)C1=O)NC1C=CS(=O)(=O)C1 (stereo not given)", "%", -78],
  ["COc1ccc2c(c1)oc1c(C)c3c(c(C)c12)C(=O)N(Nc1ccccc1)C3=O", "%", 84],
  ["Cc1cc(N2CCCCC2)nc(NCc2cc(Nc3ccnc4cc(Cl)ccc34)ccc2F)n1", "%", -46.9],
  ["COc1ccc2c(c1)CC[C@@H]1[C@@H]2CC[C@]2(C)C3C(=CCC4C(=O)N(c5ccccc5)C(=O)C43)C[C@@H]12 (stereo not given in full)", "%", 74.3],
  ["CC1=C2[C@@H](CC1)[C@]1(C)O[C@@](C(C)C)(C[C@H]1OC(=O)CO)[C@H]2OC(=O)C1CC1c1ccccc1 (stereo not given in full)", "%", 54.2],
  ["COc1cc(NS(=O)(=O)C(C)C)cc(-c2cc(-c3ccc(N4CCNCC4)cc3)cnc2N)c1", "%", 70],
  ["COc1ccc(-c2ccc(-c3ccc(C(=N)N)cn3)s2)cc1Cl", "%", -89.9],
  ["N#CC1=C(N)Oc2c(sc3c(Br)cccc23)C1c1ccccn1 (stereo not given)", "%", 46.7],
  ["O=C(NCc1cccnc1)/C(=C\\c1ccc(Br)cc1)S(=O)(=O)c1ccccc1", "%", 10.7]
]}

----------
Tested on: A498 renal
test-summary: NCI-60 one-dose screen, 48 h (100 = growth as untreated, 0 = no growth, -100 = all killed)
assay-conditions: 10 µM unless noted
Compounds without any hit were thinned out: in the full panel of roughly 83,000, 20% have a hit. The source made the active and inactive calls. The calls were made as follows: active = growth percent below 10; inactive = the rest.

{"columns": ["compound", "growth"],
 "data": [
  ["O=C(CCl)n1nnnc1Cc1ccccc1", "109% (inactive)"],
  ["O=C(/C=C/C12c3ccccc3C(c3ccccc31)C1C(=O)NC(=O)C12)c1ccncc1 (stereo not drawn)", "87.4% (inactive)"],
  ["C=C1C(=O)O[C@@H]2[C@H]3[C@H](COC(C)=O)[C@@H](OC(C)=O)C[C@H]3C(=C)[C@@H](O)C[C@@H]12", "121% (inactive)"],
  ["CCN(c1cc(-c2ccc(CN3CCC(/C=C/S(=O)(=O)c4ccccc4)CC3)cc2)cc(C(=O)NCc2c(C)cc(C)[nH]c2=O)c1C)C1CCOCC1", "51.1% (inactive)"],
  ["Cn1cc2c(=O)nc3c(-c4nc5ccccc5[nH]4)n[nH]n3c2n1", "58.7% (inactive)"],
  ["C#CCOc1cccc(Nc2ncc3ncn(C4CCN(C(=O)CCl)C4)c3n2)c1 (stereo not drawn)", "89.2% [6.25 µM] (inactive)"],
  ["COc1cc(CO)cc2cc3ccccc3nc12", "-22.1% (active)"],
  ["Nc1[nH]nc(Nc2ccccc2)c1-c1nc2ccccc2s1", "46.8% (inactive)"],
  ["O=[N+]([O-])c1cc(C(F)(F)F)ccc1Sc1ccc(C(F)(F)F)cc1[N+](=O)[O-]", "87% (inactive)"],
  ["C#CCn1cnc2cnc(Nc3cccc(NC(=O)CCl)c3)nc21", "-42.2% [6.25 µM] (active)"],
  ["O=C(/C=C/c1ccc(Cl)s1)c1ccc(Cl)s1", "97.8% (inactive)"],
  ["N#C/C(=C\\c1ccccc1Cl)c1cc2ccccc2[nH]1", "98.6% (inactive)"],
  ["Cc1cc2nc(C(Cl)Cl)nc(-c3ccc(Cl)cc3)n2n1", "-16.9% (active)"],
  ["C[C@@H]1O[C@@H](O[C@H]2[C@@H](OC(=O)[C@]34CCC(C)(C)C[C@H]3C3=CC[C@@H]5[C@@]6(C)C[C@H](O)[C@H](O[C@@H]7O[C@H](CO)[C@@H](O)[C@H](O)[C@H]7O)[C@@](C)(CO)[C@@H]6CC[C@@]5(C)[C@]3(C)C[C@H]4O)OC[C@@H](O)[C@@H]2O)[C@H](O)[C@H](O[C@@H]2OC[C@@H](O)[C@H](O[C@@H]3OC[C@](O)(CO)[C@H]3O[C@@H]3OC[C@@H](O)[C@H](O)[C@H]3O)[C@H]2O)[C@H]1O[C@@H]1OC[C@](O)(CO)[C@H]1O", "5.96% (active)"],
  ["N#Cc1ccccc1OCC(=O)Nc1nc2c(s1)COc1ccccc1-2", "130% (inactive)"],
  ["CN1CCN(c2ccc(/C=C/C(=O)c3ccc(O)cc3)cc2)CC1", "82.9% (inactive)"],
  ["Cc1ccc(NC(=O)N/C(N)=N/c2nc(=O)c3ccccc3s2)cc1", "63% (inactive)"],
  ["C=C(CN1CC=CCC1)[C@@H]1CC[C@]2(COC(C)=O)CC[C@]3(C)[C@H](CC[C@@H]4[C@@]5(C)CC[C@H](O)C(C)(C)[C@@H]5CC[C@]43C)[C@@H]12", "116% (inactive)"],
  ["CCCCCCCCCCCCCCCCCCn1cc(COc2ccc(C=O)cc2)nn1", "105% (inactive)"],
  ["COc1ccc(/C=C2/C(=O)N=C3N2NC(c2ccccc2)=CN3c2ccccc2)cc1", "107% (inactive)"],
  ["COc1c(O)c(O)cc2c3c(oc12)CC(c1ccc2c(c1)OCO2)CC3=O (stereo not drawn)", "97.9% (inactive)"],
  ["COCCn1cc(-c2csc(-c3cn(C)c4ccc(F)cc34)n2)c2cccnc21", "36.3% (inactive)"],
  ["CN1CCCc2cc(/C=C3\\SC(=S)N(C(Cc4ccc(O)cc4)C(=O)O)C3=O)ccc21 (stereo not drawn)", "87.8% (inactive)"],
  ["CC(=O)OC[C@]12CCC(C)(C)C=C1[C@H]1CC[C@@H]3[C@@]4(C)CCCNC(C)(C)[C@@H]4CC[C@@]3(C)[C@]1(C)CC2", "97.9% (inactive)"],
  ["Cc1nc2sc(C(=O)Nc3cccc(Cl)c3C)c(N)c2cc1C(O)c1ccccc1 (stereo not drawn)", "-11.6% (active)"],
  ["COc1ccc(-c2ccccc2)cc1-c1c(Nc2cc(Cl)cc(Cl)c2O)c(=O)c1=O", "-17.6% (active)"],
  ["N#CC(Cc1cccc2ccccc12)c1cc2ccccc2[nH]1 (stereo not drawn)", "112% (inactive)"],
  ["COc1cc2c(cc1OCCCOC1=C=C=C(c3ccc4c(c3)c3cc(-c5ccc(OCCCOc6cc7c(cc6OC)C(=O)N6CCC[C@H]6C=N7)cc5)ccc3n4S(=O)(=O)c3ccc(C)cc3)C=C1)N=C[C@@H]1CCCN1C2=O", "76.9% (inactive)"],
  ["BrC1=C(Br)C(Br)(Br)C(Br)=C1Br", "109% (inactive)"],
  ["COC(=O)c1nc(-c2ccc(C)cc2)oc1S(=O)(=O)c1ccc(Cl)cc1", "113% (inactive)"],
  ["COc1ccc(/C=C/C(=O)c2cc3c(N)c(C(=O)Nc4ccccc4)sc3nc2C)cc1", "18.6% (inactive)"],
  ["COc1ccc(-c2nn3c(-c4cc(F)c(Cl)cc4Cl)nnc3s2)cc1", "65.9% (inactive)"],
  ["O=C(CN1C(=O)S/C(=C\\C(Cl)=C\\c2ccccc2)C1=O)NCCCn1ccnc1", "95.7% (inactive)"],
  ["O=C(CC1(O)C(=O)Nc2ccc(Br)cc21)c1ccc(Cl)cc1 (stereo not drawn)", "97.7% (inactive)"],
  ["Cc1ccccc1SSc1ccccc1C", "96.2% (inactive)"],
  ["COc1ccc(-c2cc(-c3cc(OC)c(OC)c(OC)c3)c(C#N)c(=O)n2CCCCC(=O)O)cc1", "85.6% (inactive)"],
  ["Nc1c(C(=O)Nc2ccncc2)sc2nc3c(cc12)CCCCCCCC3", "-9% (active)"],
  ["C=C(C)[C@@H]1CC[C@]2(C(=O)N3CCN(C)CC3)CC[C@]3(C)[C@H](CC[C@@H]4[C@@]5(C)CC(CCCNC(C)=O)(CCCNC(C)=O)[C@H](OC(C)=O)C(C)(C)[C@@H]5CC[C@]43C)[C@@H]12", "109% (inactive)"]
]}
